System tested: Recombinant human MALT-1 (amino acids 340-824) (Homo sapiens (Human))
Sequence (Q9UDY8 340-824): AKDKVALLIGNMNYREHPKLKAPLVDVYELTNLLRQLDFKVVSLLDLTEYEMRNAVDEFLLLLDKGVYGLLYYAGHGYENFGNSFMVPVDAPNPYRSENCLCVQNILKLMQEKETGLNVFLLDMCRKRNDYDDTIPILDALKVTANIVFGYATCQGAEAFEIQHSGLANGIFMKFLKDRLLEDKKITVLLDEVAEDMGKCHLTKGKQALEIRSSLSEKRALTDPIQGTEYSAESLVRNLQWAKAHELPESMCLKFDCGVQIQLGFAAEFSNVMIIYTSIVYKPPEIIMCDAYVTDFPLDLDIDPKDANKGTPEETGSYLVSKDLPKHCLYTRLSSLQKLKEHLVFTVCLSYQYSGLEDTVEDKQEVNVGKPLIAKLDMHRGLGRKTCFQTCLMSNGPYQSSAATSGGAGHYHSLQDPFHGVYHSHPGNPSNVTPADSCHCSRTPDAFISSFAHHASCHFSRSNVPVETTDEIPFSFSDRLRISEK
Method notes: MALT-1 inhibition assay (fluorogenic substrate Ac-LRSR-Rh110-DP)
Test settings: recombinant human MALT-1, substrate Ac-LRSR-Rh110-DP
pIC50: −log10 of the molar value.

>  <Compound>
CN(C(=O)C1CCS(=O)(=O)CC1)[C@@H](c1ccc(N2CCCc3c2cnc2c(Cl)cnn32)cc1)C(F)(F)F

>  <pIC50>
5.67

$$$$
>  <Compound>
CN1C[C@H](C(=O)N(C)[C@@H](c2ccc(N3CCCc4c3cnc3cc(Cl)nn43)cc2)C(F)(F)F)NC1=O (relative stereo)

>  <pIC50>
7.38

$$$$
>  <Compound>
CC(=O)N1CCC(C(=O)N(C)[C@@H](c2ccc(N3CC[C@@H](C)c4c3cnc3cc(Cl)nn43)cc2)C(F)(F)F)CC1

>  <pIC50>
7.13

$$$$
>  <Compound>
CN(C)CC(=O)N1CC[C@H](C(=O)N(C)[C@@H](c2ccc(N3CCCc4c3cnc3cc(Cl)nn43)cc2)C(F)(F)F)C1 (relative stereo)

>  <pIC50>
6.86

$$$$
>  <Compound>
CC(=O)N1CCC[C@@H](C(=O)N(C)[C@@H](c2ccc(N3CCCc4c3cnc3cc(Cl)nn43)cc2)C(F)(F)F)C1 (relative stereo)

>  <pIC50>
6.90

$$$$
>  <Compound>
CN(C(=O)C1CC1)[C@@H](c1ccc(N2CCCc3c2cnc2cc(Cl)nn32)cc1)C(F)(F)F

>  <pIC50>
6.79

$$$$
>  <Compound>
CN(C(=O)C1CN(C(=O)[C@H]2CCO2)C1)[C@@H](c1ccc(N2CCCc3c2cnc2cc(Cl)nn32)cc1)C(F)(F)F (relative stereo)

>  <pIC50>
7.10

$$$$
>  <Compound>
C[C@H]1CCN(c2ccc([C@H](N(C)C(=O)[C@H]3CC[S@](=N)(=O)CC3)C(F)(F)F)cc2)c2cnc3cc(Cl)nn3c21 (relative stereo)

>  <pIC50>
7.66

$$$$
>  <Compound>
CN(C(=O)C1CS(=O)(=O)C1)[C@@H](c1ccc(N2CCCc3c2cnc2cc(Cl)nn32)cc1)C(F)(F)F

>  <pIC50>
6.91

$$$$
